All values here come from PubChem BioAssay (NCI).

Test system: SR leukemia
Test: NCI tumour cell line growth inhibition, 48 h; in the data active = GI50 below about 0.43 µM; inactive = the rest
Your answer must be one of the following: y = active, n = inactive

For CC1(C)C=CC[C@]2(C)[C@H]3CC[C@@H]4[C@H]5[C@H](C(=O)/C=C/c6cccnc6)CC[C@]5(CO)CC[C@@]4(C)[C@]3(C)CC[C@@H]12 , what call appears in the results of this test?
n

For O=C(Nc1ccccc1C(F)(F)F)c1cccc(NC2=C(Cl)C(=O)N(Cc3ccccc3)C2=O)c1 , what call appears in the results of this test?
n

For O=c1ccn(C2OC(CO)C(O)C2O)c(=O)[nH]1 (stereo not drawn) , what call appears in the results of this test?
n

For COc1cc(/C=C/c2cc(C(F)(F)F)[nH]c(=O)n2)ccc1OCc1ccccc1F , what call appears in the results of this test?
n

For Nc1c(C(=O)c2ccccc2)sc2nc(-c3cccs3)ccc12 , what call appears in the results of this test?
y

For COc1ccc2c(c1)sc1nc(-c3ccccc3)c(-c3ccsc3)n12 , what call appears in the results of this test?
n

For CC1=CSC2=NC(c3ccc(Cl)c(Cl)c3)=CC(c3ccc(Cl)cc3)N12 (stereo not drawn) , what call appears in the results of this test?
n

For CN1CCN(Cc2ccc(NC(=O)c3cncc(C#Cc4cnc(N)c5ccc(F)cc45)c3)cc2C(F)(F)F)CC1 , what call appears in the results of this test?
n

----------
Tested on: HOP-18 NSCLC
Assay: NCI tumour cell line growth inhibition, 48 h
Quantity kind: TGI

Answer with the recorded TGI for the molecule listed here: CC1CC(c2ccccc2)=Nc2ccccc2S1(=O)=O (stereo unspecified)
30 µM

Answer with the recorded TGI for the molecule listed here: COc1ccc(-c2c(C3=NCCN3)nnn2-c2ccccc2)cc1
> 100 µM

Answer with the recorded TGI for the molecule listed here: Cc1cc2c(CC(=O)O)[nH]nc2c(C(=O)O)c1C
> 100 µM

Answer with the recorded TGI for the molecule listed here: CCOc1ccccc1NC(=O)/C=C1\NC(=O)CS1
> 100 µM

Answer with the recorded TGI for the molecule listed here: COP1(=O)CC2C(Cl)(Cl)C2(C)C1 (stereo unspecified)
> 100 µM

Answer with the recorded TGI for the molecule listed here: CCN(CC)CCCCC1CCN(CC(=O)N2CC(C)C(=O)Nc3ccccc32)CC1 (stereo unspecified)
> 100 µM

----------
Tested on: PC-3 prostate
Assay: NCI tumour cell line growth inhibition, 48 h
Quantity kind: TGI

Report TGI from PC-3 prostate testing of CN1CCN(Cc2ccc(NC(=O)c3cncc(C#Cc4cnc(N)c5ccc(F)cc45)c3)cc2C(F)(F)F)CC1
6.68 µM

Report TGI from PC-3 prostate testing of O=C(Oc1ccc(O)c2c(=O)n3c(cc12)[nH]c1ccccc13)c1ccccc1
56 µM

Report TGI from PC-3 prostate testing of Cc1ccc(C(=O)c2oc3ccc4c(C)cc(=O)oc4c3c2C)cc1
> 100 µM

Report TGI from PC-3 prostate testing of NC(N)=N/N=C/c1nc2sccn2c1[N+](=O)[O-]
> 100 µM

Report TGI from PC-3 prostate testing of CCCCSc1n/c(=C\c2ccc(N(C)C)cc2)c2nnnn12
> 100 µM

Report TGI from PC-3 prostate testing of COc1cc(C2C3=C(COC3=O)OC(C)(C)Oc3cc4c(cc32)OCO4)cc(OC)c1OC (stereo not given)
> 100 µM

Report TGI from PC-3 prostate testing of CCOC(=O)c1sc2c(c1OC(=O)c1ccccc1)c(=O)n(-c1ccccc1)c(=S)n2-c1ccccc1
> 100 µM

Report TGI from PC-3 prostate testing of CCCCN(c1ccccc1)c1ncnc2c1cnn2C
> 100 µM

Report TGI from PC-3 prostate testing of O=C(c1ccco1)N(C(=S)OCc1ccccn1)c1ccccc1
> 100 µM

Report TGI from PC-3 prostate testing of Cc1ccc2c(c1)OC1Nc3ccccc3C1=C2O (stereo not given)
39.6 µM
